Reported values of normalised growth rate inhibition for individual entries
# Tested on: MDAMB231
# Assay Overview: normalised growth rate inhibition (GR value) relative to DMSO control (GR (1 = untreated growth, 0 = cytostasis, <0 = cytotoxic)); higher = less growth inhibition
# Setup Conditions: 0.12 µM; 72 h
In your answer, state the number alone without any accompanying words.

# annotated cases, reported normalised growth rate inhibition shown
>  <Structure Smiles>
CCOc1cc2ncc(C#N)c(Nc3ccc(F)c(Cl)c3)c2cc1NC(=O)/C=C/CN(C)C

>  <System Under Test>
MDAMB231

>  <Value Observed>
1.03

$$$$
>  <Structure Smiles>
CN1CCN(c2ccc3nc(-c4c(N)c5c(F)cccc5[nH]c4=O)[nH]c3c2)CC1

>  <System Under Test>
MDAMB231

>  <Value Observed>
0.817

$$$$
>  <Structure Smiles>
COc1cc2c(Oc3ccc(NC(=O)C4(C(=O)Nc5ccc(F)cc5)CC4)cc3F)ccnc2cc1OCCCN1CCOCC1

>  <System Under Test>
MDAMB231

>  <Value Observed>
0.615

$$$$

Next, consider the following compound.
Please indicate normalised growth rate inhibition recorded for COc1cc(OC)cc(-c2ccc3ncc4ccc(=O)n(-c5ccc(N6CCNCC6)c(C(F)(F)F)c5)c4c3c2)c1
0.859

---

List of normalised growth rate inhibition values.
# Tested on: HS578T
# Assay Overview: normalised growth rate inhibition (GR value) relative to DMSO control (GR (1 = untreated growth, 0 = cytostasis, <0 = cytotoxic)); higher = less growth inhibition
# Setup Conditions: 0.37 µM; 72 h
No unit in the answer, please; the number alone is enough.

Known normalised growth rate inhibition results, listed for orientation:
>  <Structure Smiles>
COc1cc2ncn(-c3cc(OCc4ccccc4C(F)(F)F)c(C(N)=O)s3)c2cc1OC

>  <normalised growth rate inhibition>
0.0393

$$$$
>  <Structure Smiles>
Cc1ncc(-c2ccnc(Nc3ccc(S(C)(=O)=O)cc3)n2)n1C(C)C

>  <normalised growth rate inhibition>
0.274

$$$$
>  <Structure Smiles>
CC(=O)Nc1nc(C)c(-c2ccc(Cl)c(S(=O)(=O)NCCO)c2)s1

>  <normalised growth rate inhibition>
0.99

$$$$

Dear colleague, please send me the reported normalised growth rate inhibition for Oc1cccc(-c2nc(N3CCOCC3)c3oc4ncccc4c3n2)c1 when you can.
0.249

Name the recorded normalised growth rate inhibition of the item Cc1cc(Nc2cc(N3CCN(C)CC3)nc(Sc3ccc(NC(=O)C4CC4)cc3)n2)n[nH]1 in your answer.
0.108

---

# Tested on: MCF7
# Assay Overview: normalised growth rate inhibition (GR value) relative to DMSO control (GR (1 = untreated growth, 0 = cytostasis, <0 = cytotoxic)); higher = less growth inhibition
# Setup Conditions: 3.33 µM; 72 h
Outcome Measure: normalised growth rate inhibition
Lab note: record the figure alone, no unit after it.

Known normalised growth rate inhibition results, listed for orientation:
>  <Compound>
CNC(=O)c1cc(Oc2ccc(NC(=O)Nc3ccc(Cl)c(C(F)(F)F)c3)cc2)ccn1

>  <Outcome Measure>
normalised growth rate inhibition

>  <Value Observed>
0.852

$$$$
>  <Compound>
N#CC(c1ccnc(NCCc2cccnc2)n1)c1nc2ccccc2s1 (centres undefined)

>  <Outcome Measure>
normalised growth rate inhibition

>  <Value Observed>
0.945

$$$$
>  <Compound>
O=C1NC(=O)/C(=C/c2ccc3nccc(-c4ccncc4)c3c2)S1

>  <Outcome Measure>
normalised growth rate inhibition

>  <Value Observed>
-0.0358

$$$$
>  <Compound>
C[C@]1(O)C[C@@H](c2nc(-c3ccc4ccc(-c5ccccc5)nc4c3)c3c(N)nccn32)C1

>  <Outcome Measure>
normalised growth rate inhibition

>  <Value Observed>
0.383

$$$$
>  <Compound>
CC(=O)Nc1nc(C)c(-c2ccc(Cl)c(S(=O)(=O)NCCO)c2)s1

>  <Outcome Measure>
normalised growth rate inhibition

>  <Value Observed>
0.441

$$$$

Note normalised growth rate inhibition for the compound shown: Cn1c(=O)n(-c2ccc(C(C)(C)C#N)cc2)c2c3cc(-c4cnc5ccccc5c4)ccc3ncc21
0.034

Please supply the value of reported normalised growth rate inhibition for the item Cn1cnc2c(F)c(Nc3ccc(Br)cc3Cl)c(C(=O)NOCCO)cc21
0.575

Specify normalised growth rate inhibition for C=CC(=O)Nc1cc2c(Nc3ccc(F)c(Cl)c3)ncnc2cc1OCCCN1CCOCC1 and stop.
0.505

Note down normalised growth rate inhibition recorded for N#CCNC(=O)c1ccc(-c2ccnc(Nc3ccc(N4CCOCC4)cc3)n2)cc1
0.332

Annotate the compound COC(=O)c1ccc2c(C(=Nc3ccc(N(C)C(=O)CN4CCN(C)CC4)cc3)c3ccccc3)c(O)[nH]c2c1 with its measured normalised growth rate inhibition.
0.326

Look up and state reported normalised growth rate inhibition for CCn1c(-c2nonc2N)nc2c(C#CC(C)(C)O)ncc(OC[C@H]3CCCNC3)c21
0.361

Fill in reported normalised growth rate inhibition for this entry: COc1cc2c(Oc3ccc(NC(=O)C4(C(=O)Nc5ccc(F)cc5)CC4)cc3F)ccnc2cc1OCCCN1CCOCC1
0.00497

Please look at this compound and report its normalised growth rate inhibition: CNC(=O)c1ccc(Nc2cc(Nc3ccccc3S(=O)(=O)C(C)C)c3cc[nH]c3n2)nc1
0.064

Please indicate normalised growth rate inhibition recorded for C#Cc1cccc(Nc2ncnc3cc(OCCOC)c(OCCOC)cc23)c1
1.04
